# Protocol text: PK parameters in RS4;11 grafted female SCID mice
# Type: in vivo
# Conditions: female, SCID, mouse, blood, iv; 15 mg/kg, one i.v. treatment, 20% HP-β-cyclodextrin solution; read-out: t1/2, z (converted)
Measurement label: half-life (min)

> print(dat)
                        structure.as.smiles  unit.abbreviation  assay.value
1  Cc1c(N(C(=O)c2cc(-c3cc(Cl)ccc3C(=O)N3Cc4ccccc4C[C@H]3CN3CCOCC3)n(C)c2C)c2ccc(O)cc2)cc(C#N)n1C                min         45.6

###

# Protocol text: PK parameters in RS4;11 grafted female SCID mice
# Type: in vivo
# Conditions: female, SCID, mouse, blood, intravenous; 15 mg/kg, one i.v. treatment, 20% HP-β-cyclodextrin solution; read-out: Clast
Measurement label: concentration at 6 h (ng/mL)

> print(dat)
                        structure.as.smiles     measurement.label  assay.value
1  Cc1c(N(C(=O)c2cc(-c3cc(Cl)ccc3C(=O)N3Cc4ccccc4C[C@H]3CN3CCOCC3)n(C)c2C)c2ccc(O)cc2)cc(C#N)n1C  concentration at 6 h         58.4

###

# Protocol text: Solubility test in various carriers (Example 1)
# Format: physicochemical
# Conditions: aqueous buffer, thermodynamic from solid; carrier: Acetate buffer (pH=4; 50 mM); read-out: Solubility after 2 h
Measurement label: solubility at 2 h (µg/mL)

> print(dat)
                        structure.as.smiles  assay.value
1  Cc1c(N(C(=O)c2cc(-c3cc(Cl)ccc3C(=O)N3Cc4ccccc4C[C@H]3CN3CCOCC3)n(C)c2C)c2ccc(O)cc2)cc(C#N)n1C          200

###

# Protocol text: Solubility test in various carriers (Example 1)
# Assay type: physicochemical
# Conditions: aqueous buffer, thermodynamic from solid; carrier: Phosphate buffer (pH=6-7.4; 67.7 mM); read-out: Solubility after 2 h
Measurement label: solubility at 2 h (µg/mL)

> print(dat)
                        structure.as.smiles  assay.value
1  Cc1c(N(C(=O)c2cc(-c3cc(Cl)ccc3C(=O)N3Cc4ccccc4C[C@H]3CN3CCOCC3)n(C)c2C)c2ccc(O)cc2)cc(C#N)n1C          210

###

# Protocol text: PK parameters in RS4;11 grafted female SCID mice
# Assay type: in vivo
# Conditions: female, SCID, mouse, iv; 15 mg/kg, one i.v. treatment; blood; administration to the last point
Measurement label: AUC(0-t) (ng·h/mL)

> print(dat)
                                   compound  measurement.label  assay.value
1  Cc1c(N(C(=O)c2cc(-c3cc(Cl)ccc3C(=O)N3Cc4ccccc4C[C@H]3CN3CCOCC3)n(C)c2C)c2ccc(O)cc2)cc(C#N)n1C [Compound A, H2SO4]           AUC(0-t)        20400

###

# Protocol text: PK parameters in RS4;11 grafted female SCID mice
# Format: in vivo
# Conditions: female, SCID, mouse, blood, intravenous; 40 mg/kg, one i.v. treatment, 20% HP-β-cyclodextrin solution; read-out: Clast
Measurement label: concentration at 6 h (µg/mL)

> print(dat)
                        structure.as.smiles  assay.value
1  Cc1c(N(C(=O)c2cc(-c3cc(Cl)ccc3C(=O)N3Cc4ccccc4C[C@H]3CN3CCOCC3)n(C)c2C)c2ccc(O)cc2)cc(C#N)n1C        0.457

###

# Protocol text: Solubility test in various carriers (Example 1)
# Type: physicochemical
# Conditions: organic solvent or mixture, thermodynamic from solid; carrier: Absolute ethanol; read-out: Solubility after 24 h
Measurement label: solubility at 24 h (µg/mL)

> print(dat)
                                   compound   measurement.label  assay.value
1  Cc1c(N(C(=O)c2cc(-c3cc(Cl)ccc3C(=O)N3Cc4ccccc4C[C@H]3CN3CCOCC3)n(C)c2C)c2ccc(O)cc2)cc(C#N)n1C [Compound A, H2SO4]  solubility at 24 h         1130

###

# Protocol text: PK parameters in RS4;11 grafted female SCID mice
# Type: in vivo
# Conditions: female, SCID, mouse, blood, iv; 15 mg/kg i.v.
Measurement label: Cmax (ng/mL)

> print(dat)
                        structure.as.smiles  measurement.label  unit.abbreviation  assay.value
1  Cc1c(N(C(=O)c2cc(-c3cc(Cl)ccc3C(=O)N3Cc4ccccc4C[C@H]3CN3CCOCC3)n(C)c2C)c2ccc(O)cc2)cc(C#N)n1C               Cmax              ng/mL        14700

###

# Protocol text: Solubility test in various carriers (Example 1)
# Assay type: physicochemical
# Conditions: aqueous with cosolvent or surfactant or cyclodextrin, thermodynamic from solid; carrier: Cavitron W7HP5, 20% by weight cyclodextrin solution; read-out: Solubility after 24 h
Measurement label: solubility at 24 h (mg/mL)

> print(dat)
                        structure.as.smiles  assay.value
1  Cc1c(N(C(=O)c2cc(-c3cc(Cl)ccc3C(=O)N3Cc4ccccc4C[C@H]3CN3CCOCC3)n(C)c2C)c2ccc(O)cc2)cc(C#N)n1C         30.2

###

# Protocol text: Solubility test in various carriers (Example 1)
# Type: physicochemical
# Conditions: aqueous with cosolvent or surfactant or cyclodextrin, thermodynamic from solid; carrier: Kleptose HP, 20% by weight cyclodextrin solution; read-out: Solubility after 24 h
Measurement label: solubility at 24 h

> print(dat)
                        structure.as.smiles   measurement.label     assay.value
1  Cc1c(N(C(=O)c2cc(-c3cc(Cl)ccc3C(=O)N3Cc4ccccc4C[C@H]3CN3CCOCC3)n(C)c2C)c2ccc(O)cc2)cc(C#N)n1C  solubility at 24 h  25 to 26 mg/mL

###

# Protocol text: Solubility test in various carriers (Example 1)
# Format: physicochemical
# Conditions: 2% Kolliphor ELP solution, aqueous with cosolvent or surfactant or cyclodextrin, thermodynamic from solid; carrier: 2% Kolliphor ELP; read-out: Solubility after 24 h
Measurement label: solubility at 24 h

> print(dat)
                        structure.as.smiles  assay.value
1  Cc1c(N(C(=O)c2cc(-c3cc(Cl)ccc3C(=O)N3Cc4ccccc4C[C@H]3CN3CCOCC3)n(C)c2C)c2ccc(O)cc2)cc(C#N)n1C   1740 µg/mL

###

# Protocol text: Solubility test in various carriers (Example 1)
# Assay type: physicochemical
# Conditions: 2% Polysorbate 80 solution, aqueous with cosolvent or surfactant or cyclodextrin, thermodynamic from solid; carrier: 2% Polysorbate 80; read-out: Solubility after 2 h
Measurement label: solubility at 2 h (µg/mL)

> print(dat)
                                   molecule  measurement.label  assay.value
1  Cc1c(N(C(=O)c2cc(-c3cc(Cl)ccc3C(=O)N3Cc4ccccc4C[C@H]3CN3CCOCC3)n(C)c2C)c2ccc(O)cc2)cc(C#N)n1C [Compound A, H2SO4]  solubility at 2 h         2300

###

# Protocol text: Solubility test in various carriers (Example 1)
# Type: physicochemical
# Conditions: aqueous with cosolvent or surfactant or cyclodextrin, thermodynamic from solid; carrier: Cavitron W7HP7, 20% by weight cyclodextrin solution; read-out: Solubility after 24 h
Measurement label: solubility at 24 h

> print(dat)
                        structure.as.smiles   measurement.label  assay.value
1  Cc1c(N(C(=O)c2cc(-c3cc(Cl)ccc3C(=O)N3Cc4ccccc4C[C@H]3CN3CCOCC3)n(C)c2C)c2ccc(O)cc2)cc(C#N)n1C  solubility at 24 h   21.2 mg/mL

###

# Protocol text: PK parameters in RS4;11 grafted female SCID mice
# Format: in vivo
# Conditions: female, SCID, mouse, blood, iv; 15 mg/kg, one i.v. treatment, 20% HP-β-cyclodextrin solution
Measurement label: AUC (ng·h/mL)

> print(dat)
                        structure.as.smiles  unit.abbreviation  assay.value
1  Cc1c(N(C(=O)c2cc(-c3cc(Cl)ccc3C(=O)N3Cc4ccccc4C[C@H]3CN3CCOCC3)n(C)c2C)c2ccc(O)cc2)cc(C#N)n1C            ng·h/mL        20500

###

# Protocol text: Solubility test of Compound A, H2SO4 in a HP-β-cyclodextrin as a function of the pH
# Assay type: physicochemical
# Conditions: aqueous HP-β-cyclodextrin (Cavitron W7HP5) solution, aqueous with cosolvent or surfactant or cyclodextrin, thermodynamic from solid; Cavitron W7HP5 200 mg/mL + 0.1N NaOH; pH 8.8; read-out: Solubility after 24 h
Measurement label: solubility at 24 h (µg/mL)

> print(dat)
                        structure.as.smiles   measurement.label  assay.value
1  Cc1c(N(C(=O)c2cc(-c3cc(Cl)ccc3C(=O)N3Cc4ccccc4C[C@H]3CN3CCOCC3)n(C)c2C)c2ccc(O)cc2)cc(C#N)n1C  solubility at 24 h          990
